Origin of measurements: the supplement of paper PMC4862054

Assign normalised viability to each entry below.
- System: MDA-MB-453
- assay-text: normalised viability (% of control), CellTiter-Blue; higher = more viable cells (about 100 = DMSO control)
- study-conditions: incubation time: 72 h
Give bare numbers, in %.

molecule="C[C@]12O[C@H](C[C@]1(O)CO)n1c3ccccc3c3c4c(c5c6ccccc6n2c5c31)CNC4=O [Lestaurtinib] (30 nM)" value_kind="normalised viability" unit_text=% value_observed=105
molecule="COc1ccc(-c2cc3c(C)nc(N)nc3n([C@H]3CC[C@H](OCCO)CC3)c2=O)cn1 (300 nM)" value_kind="normalised viability" unit_text=% value_observed=16.9

Alright, here's another molecule for you.
q: // normalised viability lookup, key: Cc1c(CN2CCN(C(=O)[C@H](C)O)CC2)sc2c(N3CCOCC3)nc(-c3cnc(N)nc3)nc12 [GDC-0980] (300 nM)
a: 18.3

---

Assign normalised response to each entry below.
- System: BT-474
- assay-text: normalised response (% of control), CellTiter-Glo; higher = more viable cells (100 = DMSO, 0 = benzethonium chloride kill control)
- study-conditions: incubation time: 72 h
Answers are plain numbers, in %.

molecule="CS(=O)(=O)N1CCN(Cc2cc3nc(-c4cccc5[nH]ncc45)nc(N4CCOCC4)c3s2)CC1 [Pictilisib] (1 nM)" tgt=BT-474 value_kind="normalised response" value_observed=92.7
molecule="COc1cc(CCc2cc(NC(=O)c3ccc(N4CC(C)NC(C)C4)cc3)n[nH]2)cc(OC)c1 (centres undefined) [AZD4547] (1 nM)" tgt=BT-474 value_kind="normalised response" value_observed=103
molecule="Cc1cccc(-c2nn3c(c2-c2ccnc4ccc(C(N)=O)cc24)CCC3)n1 [Galunisertib] (1 nM)" tgt=BT-474 value_kind="normalised response" value_observed=109
molecule="c1cc(CN2CCCNCCNCCCNCC2)ccc1CN1CCCNCCNCCCNCC1 [Plerixafor] (10 nM)" tgt=BT-474 value_kind="normalised response" value_observed=97.2
molecule="CC(=O)OC[C@H]1O[C@@H]([S-])[C@H](OC(C)=O)[C@@H](OC(C)=O)[C@@H]1OC(C)=O.CCP(CC)CC.[Au+] [Auranofin] (250 nM)" tgt=BT-474 value_kind="normalised response" value_observed=99
molecule="Cn1cc(CNCC2CCN(c3ncc(C(=O)NO)cn3)CC2)c2ccccc21 [Quisinostat] (0.1 nM)" tgt=BT-474 value_kind="normalised response" value_observed=104

Okay, here is my list. What is normalised response for each of these?
1. COc1cc(CCc2cc(NC(=O)c3ccc(N4CC(C)NC(C)C4)cc3)n[nH]2)cc(OC)c1 (centres undefined) [AZD4547] (100 nM)
2. c1cc(CN2CCCNCCNCCCNCC2)ccc1CN1CCCNCCNCCCNCC1 [Plerixafor] (1 nM)
3. CNC(=O)c1cc(Oc2ccc(NC(=O)Nc3ccc(Cl)c(C(F)(F)F)c3)cc2)ccn1 [Sorafenib] (100 nM)
4. C[C@]12C=CC(=O)C=C1CC[C@@H]1[C@@H]2[C@@H](O)C[C@@]2(C)[C@H]1CC[C@]2(O)C(=O)CO [Prednisolone] (1000 nM)
5. c1cc(CN2CCCNCCNCCCNCC2)ccc1CN1CCCNCCNCCCNCC1 [Plerixafor] (1000 nM)
6. CC(C)N(CCCNC(=O)Nc1ccc(C(C)(C)C)cc1)C[C@H]1O[C@@H](n2cc(Br)c3c(N)ncnc32)[C@H](O)[C@@H]1O [SGC0946] (10 nM)
7. COc1ccc(-c2cc3c(C)nc(N)nc3n([C@H]3CC[C@H](OCCO)CC3)c2=O)cn1 (10 nM)
8. Nc1cccc2c1CN(C1CCC(=O)NC1=O)C2=O (centres undefined) [Lenalidomide] (10 nM)

a:
[102, 95.8, 101, 158, 93.7, 98.8, 88.8, 97.8]
